The following compounds are listed with their measured growth values.
- Test system: U251 CNS
- Assay Text: NCI-60 one-dose screen, 48 h (100 = growth as untreated, 0 = no growth, -100 = all killed)
- Test Context: 10 µM unless noted
About 83,000 compounds went through this panel and 20% of them were active in at least one assay; those are over-represented in the sample as a whole.

Compound	Target	growth (%)
O=S(=O)(NCCNc1nccc(-c2c(-c3ccccc3)nc3sccn23)n1)c1ccc(O)cc1	U251 CNS	41.5
NC(=O)c1cccc(N2Cc3ccccc3OC3=C2C(=O)c2c(O)ccc(O)c2C3=O)c1	U251 CNS	-7.38
COc1ccc(NC(=O)/N=c2\oc3c(OC)cccc3cc2-c2cc3ccccc3[nH]2)cc1	U251 CNS	34.1
C=C1C(=O)O[C@H]2[C@H]1CC/C(COC(=O)NCc1ccc(OC)cc1)=C\CC[C@@]1(C)O[C@@H]21	U251 CNS	67.4
COc1cccc(NC(=O)c2sc3nc4c(cc3c2N)CCCC4)c1	U251 CNS	19.8
NC(=O)c1c(NC(=O)c2ccc(OCC3CCCO3)cc2)sc2c1CCCC2 (stereo not given)	U251 CNS	95.2
COc1ccc(-c2nc3sccn3c2-c2ccnc(NCCNS(=O)(=O)c3ccc(C(F)(F)F)cc3)n2)cc1	U251 CNS	15.4
C[N+](C)(C)c1ccc(CC2c3ccccc3-c3ccccc32)cc1	U251 CNS	19.3
COc1cc(-c2csc(NC(=O)c3cc(C(F)(F)F)cc(C(F)(F)F)c3)n2)cc(OC)c1OC	U251 CNS	21
COc1cc2c3c(c(=O)oc2cc1OS(=O)(=O)c1ccc(C(F)(F)F)cc1)CCCCC3	U251 CNS	82.1
COc1cc(C2C=C(C)N=C3SC=C(C)N32)cc(OC)c1OC (stereo not given)	U251 CNS	-75.6
N#Cc1c(NC(=O)c2ccc([N+](=O)[O-])o2)[n+]([O-])c2cc(F)c(F)cc2[n+]1[O-]	U251 CNS	102
CC(C)CCN(CCCNc1c2c(nc3ccccc13)CCCC2)CCC(C)C	U251 CNS	65.1
CCCCCCCCCCCCNC(=S)N/N=C/c1ccc(Cl)c(Cl)c1	U251 CNS	108
Oc1ccc(N=Cc2ccccc2)cc1	U251 CNS	96.1
COc1cccc(-c2nc3sccn3c2-c2ccnc(NCCCNS(=O)(=O)c3ccc(F)cc3)n2)c1	U251 CNS	49.6
O=C(/C=C/CN1CCCCC1)Nc1cc2c(Nc3ccc(F)c(Cl)c3F)ncnc2cc1OCCOC(F)F	U251 CNS	31.1
C=C1C(=O)O[C@H]2[C@H](O)[C@@H](C)CCC/C(C)=C/CC[C@@]3(C)O[C@@H]3C[C@@H]12	U251 CNS	97.3
C#CCC1(c2ccc(F)c(F)c2)NS(=O)(=O)c2ccccc21 (stereo not given)	U251 CNS	96.4
Cc1nc2sccn2c1-c1csc(Nc2ccccc2Cl)n1	U251 CNS	42.1
CCNC(=O)CCCCC(=O)c1c(C)[nH]c(/C=C2\N=C(c3ccc[nH]3)C=C2OC)c1C	U251 CNS	1.75
c1ccc2nc(-c3ccc4ccccc4n3)ccc2c1	U251 CNS	95.8
CC(C(=O)n1cc(-c2ccccc2)c(-c2ccccc2)c1)c1ccccc1 (stereo not given)	U251 CNS	91.1
CC1CCN(C(=O)CSc2nc3sc4c(c3c(=O)[nH]2)CCCC4)CC1	U251 CNS	95.5
Cc1ccc2c(c1)C(C)Cc1c(ncnc1-n1cnc3ccccc31)N2C (stereo not given)	U251 CNS	18.4
Oc1ccc(Cl)cc1-c1cc(-c2ccc(Cl)cc2)n[nH]1	U251 CNS	59.3
Cc1cc(Cl)ccc1OC(C)C(=O)Nc1nnc(C2CC2)s1 (stereo not given)	U251 CNS	101
O=C(Nc1ccc(OCc2nnc(-c3ccc(Cl)cc3)o2)c(F)c1)Nc1ccc(Cl)c(Cl)c1	U251 CNS	46.8
Cc1ccc(C2=NN(c3ccc(S(=O)(=O)NC(=O)NCc4ccccc4)cc3)C(c3ccc(N(C)C)cc3)C2)c(C)c1 (stereo not given)	U251 CNS	22.6
COc1ccc(/C=C2\C(=O)N(C(=O)c3csc(NC(C)=O)n3)N=C2C)cc1	U251 CNS	101
